the protein given by its sequence IC50, compiled from various sources.
Target protein (sequence): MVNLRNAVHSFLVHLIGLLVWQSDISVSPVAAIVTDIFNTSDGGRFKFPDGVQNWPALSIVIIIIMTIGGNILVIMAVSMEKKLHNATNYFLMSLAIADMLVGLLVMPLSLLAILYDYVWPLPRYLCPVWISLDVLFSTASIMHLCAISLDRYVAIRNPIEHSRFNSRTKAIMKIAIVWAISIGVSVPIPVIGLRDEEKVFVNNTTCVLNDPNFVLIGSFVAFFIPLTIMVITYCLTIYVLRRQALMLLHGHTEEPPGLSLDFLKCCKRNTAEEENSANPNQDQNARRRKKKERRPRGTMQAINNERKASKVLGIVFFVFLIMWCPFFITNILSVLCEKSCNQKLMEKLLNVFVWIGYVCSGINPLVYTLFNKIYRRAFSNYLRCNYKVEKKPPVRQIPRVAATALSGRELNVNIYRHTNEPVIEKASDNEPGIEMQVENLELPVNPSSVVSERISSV
Answers are plain numbers, in µM.

The examples below pair each entry with its known result.
COc1cc(OC)c(C(=O)CCCCN2CCC3(CC2)NC(=O)NC3=O)cc1NS(=O)(=O)c1ccc(C(F)(F)F)cc1    0.0055
Cc1cc(N2CCN(C)CC2)nc2ccc(NC(=O)COc3ccc(Cl)cc3)cc12    0.97
c1ccc(CN2CCN(c3nc4sc(-c5ccccc5)cc4n4cccc34)CC2)cc1    1000

The reported IC50 of the compound `CN(C)Cc1cnc2c(CNC(=O)c3ccc(-c4ccc(F)cc4)nc3)cccc2c1` was 10.3
